- PROCEDURE_TEXT: protein stability index of a GFP-peptide fusion (GPS, HEK-293T) (PSI 1-6); higher = more stable;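 also: 24-mer peptide tiles fused after GFP, lentivirally expressed, FACS-sorted into six equal bins by GFP/DsRed ratio, decoded by Illumina sequencing, PSI is the read-weighted mean bin number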
- CONDITION_CONTEXT: treatment: MLN4924 1 uM, 8 h; c terminus: a fixed tail appended
Lab note: anything with protein stability index at or over 3 counts as 1.0; the rest go in 0.0.

Is it the case that LLQKYNMQFLIRSHECKPEGYEFC [PPEF2] has protein stability index reaching or exceeding 3?
0.0

protein stability index >= 3 for NDGWTPLHVAAHYGRDSFVRLLLE [ASB7] ?
0.0

Confirm if protein stability index reported for the sequence TSWSQHCPWEPQKQPPWEFLQVLE [SPAG8] is 3 or above.
0.0

Item MGKLLQQPNTYADFEFLAFWQTQY [PKD2L1] with protein stability index of 3 or above?
0.0

Please check the record QSFISWTGDGWEFKLADPDEVARR [ETS2] and state if its protein stability index is at or above 3.
1.0

Please tell me: is the sequence AVLAASSPYFHDQVLLKGMTSISL [ZBTB22] at or over 3 in terms of protein stability index?
0.0

State whether the measured protein stability index reaches 3, counting equality as reaching it, for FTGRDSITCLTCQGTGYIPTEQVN [TMEM106C]
1.0

protein stability index >= 3 for KQPRKKRGRYRQYNSEILEEAISV [LCOR] ?
1.0

hey, is protein stability index for this one >= 3? CSSPSVVASLPLDQSDEGSSSQKE [MAGEA10]
1.0

Quick check, protein stability index >= 3? GHRLAQKLQGLENWGQDPGVSANA [PBXIP1]
1.0

Could you verify whether the entry RLSGLSSVGHNWRKRMGTRRGRHE [C22orf15] shows protein stability index of no less than 3?
1.0

In plain terms: is recorded protein stability index at least 3 for SLALGDLIYVVIDLPINVFKLLAG [EDNRA] ?
1.0

###

For each record, write down the corresponding protein stability index.
- PROCEDURE_TEXT: protein stability index of a GFP-peptide fusion (GPS, HEK-293T) (PSI 1-6); higher = more stable
- CONDITION_CONTEXT: treatment: DMSO; c terminus: native
Give only the figure.

So what's the measured protein stability index for this one? LEGKTFYSKKDRPLCKSHAFSHV [PDLIM7]
3.36

I am curious: what protein stability index value has been reported for RKRKKATEAIDSLRKSKRLRNRK [FBXO28] ?
4.97

Can you look up the measured protein stability index of GEWGGRHPSWPWTRCLRMRPPRS for me?
2.81

Which protein stability index value is on record for IPKCSKIVIDFDSINSRPSQKLQ [DCTD] ?
3.14

// query protein stability index value for entry KVLRRWVDEEWPKRERGDPSRHF [EDARADD]
3.21

May I ask what protein stability index has been recorded for FLQALSLAVDKQFEERKKLAAYI [TRIP13] ?
3.18

So what's the measured protein stability index for this one? RAEKEACQREKELPAAVHPFHFV [ZBED2]
4.87

# lookup: protein stability index of LNGYRLGERVLQVSFKTSKQHKA [ELAVL3]
3.16

Requested field: protein stability index. Item: TKKRHTPRGHAESTSNRQPRKQG [SMOC2]
2.59

Consider the sequence RQRLQDISSLPLPQSLKNYLQYQ [SPSB4] and give its measured protein stability index.
3.65

Which measured protein stability index value corresponds to RLVYKFGKNSSGWKEEEVLQSRN [ELF3] ?
2.76

For the sequence shown here, GSGSSYVQNGTGNAYEEEANKQS [CNOT7] , give the reported protein stability index.
5.37

Returns the measured protein stability index for the input sequence. Input: SRLLIFPLYICCNFLYISPEKKN [GMCL1]
2.97

###

- PROCEDURE_TEXT: protein stability index of a GFP-peptide fusion (GPS, HEK-293T) (PSI 1-6); higher = more stable
- CONDITION_CONTEXT: treatment: DMSO; c terminus: a fixed tail appended
MEASURED_ENDPOINT: protein stability index
Please give only the number in your answer, with no unit.

Which value of protein stability index has been reported for DIYILPSDNSGQVSPPESPTVTTS [BCL2L13] in the records?
4.58

State the recorded protein stability index for this entry: SHAAPGPSPDSWVPRPGTPQSPPS [FCHO1]
5.12

// query protein stability index value for entry PCLLGSRVFSQGSHAWEVALGGLQ [TRIM35]
2.36

Item PGNQAEHGAVTVGGTSVGSLGVPG [ZBTB22] has what recorded protein stability index?
4.89

Would you mind telling me what protein stability index value was observed for PHFLQGGPFPLPYTAPGGYLDVGS [TBX6] ?
2.93

# lookup: protein stability index of NKYMVTDGAAYIGNFDWVGNDFTQ [PLD5]
2.87

Report protein stability index for ISYSSMLGAVAGLALGPILRLYKH [MFSD9] please.
2.58

Fill in the blank: the reported protein stability index of FLGISIVGQSNERGDGGIYIGSIM [DVL3] is ____.
2.87

Which protein stability index is reported for this sequence? PPLNPTSWWADLRALARNLIFGLI [SPNS1]
4.75

Dear colleague, I am looking for the recorded protein stability index of the following sequence: WGGKAETERGLSRKHIIEGLKASL [KCNAB2]
2.26

Could you tell me which protein stability index is on file for MPLREGSSFQDLLGDALAGPPRAP [HES6] ?
3.86

// query protein stability index value for entry FPWIDAIMTQLRQEGWIHHLARHA [CRY1]
2.5

Could you tell me which protein stability index is on file for ADKCVCGPSAPPAPTPPSLSQRVM [TIAF1] ?
4.15

###

- PROCEDURE_TEXT: protein stability index of a GFP-peptide fusion (GPS, HEK-293T) (PSI 1-6); higher = more stable
- CONDITION_CONTEXT: treatment: MLN4924 1 uM, 8 h; c terminus: a fixed tail appended
Give measured protein stability index for each item. Keep answers brief.
Write the value as a bare number.

Return reported protein stability index; argument: LGGRALMNCLPSNRTLWRLDLAGN [LRRC45]
2.32

Please look up its protein stability index: RWSPAQEESFRQMVVIHKEIPTGK [ZNF232]
3.99

May I ask what protein stability index has been recorded for LCAYGFFASLRPSEPFLTPYLLGP [SLC19A2] ?
2.9

What value of protein stability index has been reported for the following sequence? KRYESHPVCADLQAKILQCYRENT [CHCHD3]
3.55

// query protein stability index value for entry TALHIACYNGQDAVVNELIDYGAN [ANKRD44]
2.86

For the sequence shown here, IQIAFEEVPQLPPRASISHVTCVD [C2CD2L] , give the reported protein stability index.
2.46

Consider the sequence YLIMIFLGLYINFRHLYKQRRRRY [HACD3] and give its measured protein stability index.
2.53

Request the reported protein stability index associated with LEDSTMGSVADTVARVLRGCLENM [PLK2]
2.96

Would you kindly share the measured protein stability index for QGCPGAKKHEFLTSVLDALSTDMV [SMOC2] ?
3.07

What protein stability index value was documented for this sequence, NNADLCLTDDKQVLNTQGQKTSGQ [DLC1] ?
5.16

What value of protein stability index has been reported for the following sequence? LSSAVWPGGETEALTRLERHLERK [CRY1]
4.27

# get_value(readout='protein stability index', item= NQLVGPESIAHIGDVMFTGTADGR [APMAP] )
4.69

Quick one: protein stability index of REEQCAAYNHRTDLFKSFPGPMDW [ADAMTS4] ?
3.1

Please give the measured protein stability index for this sequence: SPIKLSPTSPVYRGSSSGPSSPAR [MTUS2]
4.39

I'd like to know its protein stability index. The sequence in question is PRCKTTKYRNPSLKLMVNVCGHTL [MNAT1]
2.31

# lookup: protein stability index of AVLGLYLLVFLILVGIFILAVSRP [SCARA5]
2.58

# get_value(readout='protein stability index', item= QKVVVTTPLHRDKTPLHQKHAAFV [MYBL2] )
3.14

What does the record list as protein stability index for SLIRKHAQTFIALCATDFKFAMYP [CCND2] ?
2.97

Fill blank: measured protein stability index of the sequence EVPDSYTGPRLSFPLLPDHATALV [PPEF2] is ____.
3.42

Request the reported protein stability index associated with QWNAGEKKLTGGANWQPKVAPATW [SNAP91]
3.07

// lookup protein stability index for SPESGLEVRDRMLLKITIPNAFIG [DVL3]
2.24

GET /values?readout=protein stability index&item= TLLNPRMIVDVTPYMNPSPFTVSP [CLCN6]
2.25

Fill in: protein stability index of PPLNPTSWWADLRALARNLIFGLI [SPNS1] is ___
4.74

What value of protein stability index has been reported for the following sequence? TQKFTDMVATANNRQTFVNSAIRF [CHIT1]
3.17

Query (sequence): DRYSEGIKHVLQTFGPIPEFSRAT [CRYL1] ; field requested: protein stability index
3.36

Which protein stability index value belongs to LKDNPLDPVLAKVAGDCLDEKQCK [LRRC59] ?
5.19

State the recorded protein stability index for this entry: AQTNPTPGSLGPWKITIYDQENFQ [CRYBA1]
3.3

State the recorded protein stability index for this entry: ARQELLGDRPRWQRLLGEDKFQWL [ANKRD9]
2.98

Look at this sequence and give its reported protein stability index. VVDKDKRNQCRYCRLKKCFRAGMK [HNF4A]
2.75

// lookup protein stability index for EQIRFVMKAHSFVRENVPRVLNSA [SOAT1]
2.48

Endpoint output: protein stability index of TSIVQAAAGGVPGGGSNNGKTPVC [PDLIM7] . Value?
4.81

Looking for the measured protein stability index of RLEQEIATYRRLLEGEDAHLSSQQ [KRT16] , can you help?
4.21

Quick one: protein stability index of HQEQVEDLTASHDAALLEMENNHT [MTUS2] ?
5.4

Please give the measured protein stability index for this sequence: IHTGKKPHVCSLCGKAFYKKYRLT [ZNF649]
2.92

// lookup protein stability index for IVSTQITRPSGNNGNRRRRKLRKT [PHTF1]
4.46

Need protein stability index, item LCKNCFYLSNARPDNWFCYPCIPN [ZMYND11]
2.23

Dear colleague, I am looking for the recorded protein stability index of the following sequence: ITEKIDVAFVDRADIKQYIGPPSA [TRIP13]
3.54

For the sequence shown here, MPLREGSSFQDLLGDALAGPPRAP [HES6] , give the reported protein stability index.
4.05

What value of protein stability index has been recorded for this entry: CHLCNYACRRRDALTGHLRTHSVI [IKZF1]
3.15

State the recorded protein stability index for this entry: QLAQDDIDGIQAIYGRSQNPVQPI [MMP1]
3.9

I am curious: what protein stability index value has been reported for AAIFKIYLSCLEELMKCQIIYPRQ [TRIP13] ?
3.21

For the sequence NPPSDFSFQNMNSKRKAETWKKNR [STK38L] , what protein stability index is on record?
4.42

I have this sequence here, RALEEANTELEVKIRDWYQRQAPG [KRT17] , and I need its recorded protein stability index.
3.58

Need protein stability index of GYVSQQGGQRSTPLIIAARNGHAK [FEM1B] , thanks.
3.8

Using the record for DAASLRRQIIKLNRRLQLLEEENK [MFF] , report its protein stability index.
3.68

Can you look up the measured protein stability index of DLKQALPCVAESPTVHVEVHQRGS [TRIP13] for me?
4.57

Query (sequence): YSVARQFNLTPPICEQAEYHMFQR [KCNAB2] ; field requested: protein stability index
2.93

What value of measured protein stability index is listed for ALLHQAETLQPSVWFGGREHVLMF [TMEM175] ?
1.95

Bench note: what protein stability index did QLAEENERLKQEIERLTREVEATR [DDIT3] show?
5.51

Item LLNAASTVARPVFTEYQASAFGNV [RHOBTB3] has what recorded protein stability index?
2.72

Query: protein stability index; subject: HSIINALKAKLQMTEAALALSEQK [LRRC45]
2.74

I'd like to know its protein stability index. The sequence in question is KKHAAYAWPFYKPVDAEALELHDY [BRD3]
2.96

Need protein stability index of QSTVKCLTVLQRLDVWLSGGNDLC [WDR41] , thanks.
2.32
